Target: Ribosomal protein S6 kinase alpha-3 (Homo sapiens, UniProt P51812)
Sequence (P51812 whole entry): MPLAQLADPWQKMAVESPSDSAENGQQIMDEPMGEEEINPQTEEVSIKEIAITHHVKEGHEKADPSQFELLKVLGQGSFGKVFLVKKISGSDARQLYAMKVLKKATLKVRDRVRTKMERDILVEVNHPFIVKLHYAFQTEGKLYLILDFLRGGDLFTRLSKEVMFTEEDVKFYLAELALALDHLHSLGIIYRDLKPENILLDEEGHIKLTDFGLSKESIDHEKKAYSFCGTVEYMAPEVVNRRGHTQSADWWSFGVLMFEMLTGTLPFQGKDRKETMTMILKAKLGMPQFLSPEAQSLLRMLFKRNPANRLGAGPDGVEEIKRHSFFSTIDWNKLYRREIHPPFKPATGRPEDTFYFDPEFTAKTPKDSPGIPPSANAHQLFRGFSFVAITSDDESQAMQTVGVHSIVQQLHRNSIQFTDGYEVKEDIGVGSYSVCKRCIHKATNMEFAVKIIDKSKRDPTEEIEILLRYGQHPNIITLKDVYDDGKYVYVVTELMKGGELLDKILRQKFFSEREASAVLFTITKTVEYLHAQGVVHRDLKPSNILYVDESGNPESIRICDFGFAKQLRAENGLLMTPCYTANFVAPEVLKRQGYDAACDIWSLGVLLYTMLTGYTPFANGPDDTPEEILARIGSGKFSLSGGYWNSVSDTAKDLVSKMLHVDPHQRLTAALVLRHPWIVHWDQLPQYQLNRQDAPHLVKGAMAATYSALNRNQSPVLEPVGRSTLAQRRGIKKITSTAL
Experiment: Inhibition of His-tagged recombinant human RSK2 expressed in baculovirus expression system at 10 uM after 1 hr by Z'-LYTE assay relative to control
EXPERIMENTAL ENDPOINT: inhibition (%)

[
  {
    "SMILES INPUT": "Nc1ncnc2c1ncn2[C@@H]1O[C@H](COC(=O)c2ccc[nH]2)[C@@H](O)[C@H]1O",
    "MEASUREMENT UNIT": "%",
    "inhibition": 96
  },
  {
    "SMILES INPUT": "O=C(OC[C@H]1O[C@@H](n2cnc3c(=O)[nH]cnc32)[C@H](O)[C@@H]1O)c1ccc[nH]1",
    "MEASUREMENT UNIT": "%",
    "inhibition": 102
  },
  {
    "SMILES INPUT": "Nc1nc2c(ncn2[C@@H]2O[C@H](COC(=O)c3cc[nH]c3)[C@@H](O)[C@H]2O)c(=O)[nH]1",
    "MEASUREMENT UNIT": "%",
    "inhibition": 93
  },
  {
    "SMILES INPUT": "Nc1nc2c(ncn2[C@@H]2O[C@H](COC(=O)c3ccc[nH]3)[C@@H](O)[C@H]2O)c(=O)[nH]1",
    "MEASUREMENT UNIT": "%",
    "inhibition": 96
  },
  {
    "SMILES INPUT": "Nc1ncnc2c1ncn2[C@@H]1O[C@H](COC(=O)c2cc[nH]c2)[C@@H](O)[C@H]1O",
    "MEASUREMENT UNIT": "%",
    "inhibition": 94
  },
  {
    "SMILES INPUT": "O=C(OC[C@H]1O[C@@H](n2cnc3c(=O)[nH]cnc32)[C@H](O)[C@@H]1O)c1cc[nH]c1",
    "MEASUREMENT UNIT": "%",
    "inhibition": 95
  }
]

* * *

Molecular target: Glycogen synthase kinase-3 alpha (Homo sapiens, UniProt P49840)
Sequence (P49840 2-483 limits assumed): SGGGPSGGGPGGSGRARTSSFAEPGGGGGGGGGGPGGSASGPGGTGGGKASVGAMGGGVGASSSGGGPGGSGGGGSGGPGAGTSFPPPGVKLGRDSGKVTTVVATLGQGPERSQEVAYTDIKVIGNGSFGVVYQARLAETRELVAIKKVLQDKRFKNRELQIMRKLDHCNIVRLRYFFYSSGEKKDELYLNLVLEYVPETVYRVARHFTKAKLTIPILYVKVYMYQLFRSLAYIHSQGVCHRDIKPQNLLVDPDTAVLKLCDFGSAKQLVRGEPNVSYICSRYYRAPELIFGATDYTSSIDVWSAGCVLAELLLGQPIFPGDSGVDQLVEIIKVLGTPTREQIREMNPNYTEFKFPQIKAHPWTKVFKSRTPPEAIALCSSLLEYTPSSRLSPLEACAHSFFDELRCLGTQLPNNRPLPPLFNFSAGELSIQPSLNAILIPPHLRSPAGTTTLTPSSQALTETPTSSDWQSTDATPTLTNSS
Assay: Inhibition of N-Terminal GST tagged human GSK3A expressed in baculovirus expression system at 10 uM after 1 hr by Z'-LYTE assay relative to control
EXPERIMENTAL ENDPOINT: inhibition (%)

[
  {
    "SMILES INPUT": "Nc1nc2c(ncn2[C@@H]2O[C@H](COC(=O)c3cc[nH]c3)[C@@H](O)[C@H]2O)c(=O)[nH]1",
    "inhibition, %": 93
  },
  {
    "SMILES INPUT": "Nc1ncnc2c1ncn2[C@@H]1O[C@H](COC(=O)c2cc[nH]c2)[C@@H](O)[C@H]1O",
    "inhibition, %": 101
  },
  {
    "SMILES INPUT": "O=C(OC[C@H]1O[C@@H](n2cnc3c(=O)[nH]cnc32)[C@H](O)[C@@H]1O)c1ccc[nH]1",
    "inhibition, %": 94
  },
  {
    "SMILES INPUT": "Nc1ncnc2c1ncn2[C@@H]1O[C@H](COC(=O)c2ccc[nH]2)[C@@H](O)[C@H]1O",
    "inhibition, %": 99
  },
  {
    "SMILES INPUT": "Nc1nc2c(ncn2[C@@H]2O[C@H](COC(=O)c3ccc[nH]3)[C@@H](O)[C@H]2O)c(=O)[nH]1",
    "inhibition, %": 98
  },
  {
    "SMILES INPUT": "O=C(OC[C@H]1O[C@@H](n2cnc3c(=O)[nH]cnc32)[C@H](O)[C@@H]1O)c1cc[nH]c1",
    "inhibition, %": 100
  }
]
